test system: Radical scavenging activity; experiment: Antioxidant activity assessed as DPPH free radical scavenging activity after 30 mins; type: functional
pIC50 values for the compounds below.
As a rule, pIC50 stands for the negative log10 of the concentration, concentration in M.

Here are 3 compounds together with their reported answers.
O=C(O)CCC(c1c(O)cc(/C=C/c2ccc(O)c(O)c2)oc1=O)c1c(O)cc(/C=C/c2ccc(O)c(O)c2)oc1=O :: 4.05
CC(C)CC(c1c(O)cc(/C=C/c2ccc(O)c(O)c2)oc1=O)c1c(O)cc(/C=C/c2ccc(O)c(O)c2)oc1=O :: 4.02
O=c1cc(O)cc(/C=C/c2ccc(O)c(O)c2)o1 :: 4.23

Let's switch to this compound now.
Query COC(=O)CCC(c1c(O)cc(/C=C/c2ccc(O)c(O)c2)oc1=O)c1c(O)cc(/C=C/c2ccc(O)c(O)c2)oc1=O on Radical scavenging activity; pIC50 returned: 4.02
